Data provenance is patent US20200222474A1.

test system: L. acidophilus NCFM; assay: RNA-seq transcriptional analysis of L. acidophilus NCFM growing on plant glycosides; assay type: cell-based, Lactobacillus acidophilus; conditions: gene LBA0575 (ABC multi drug exporter)
PROPERTY LABEL: Log2 differential normalized TPM ratio compared to glucose

COMPOUND SMILES	ENDPOINT RESULT
O=c1ccc2cc(O[C@@H]3O[C@H](CO)[C@@H](O)[C@H](O)[C@H]3O)c(O)cc2o1	2.2
OCc1ccccc1O[C@@H]1O[C@H](CO)[C@@H](O)[C@H](O)[C@H]1O	−0.5
N#C[C@H](O[C@@H]1O[C@H](CO[C@@H]2O[C@H](CO)[C@@H](O)[C@H](O)[C@H]2O)[C@@H](O)[C@H](O)[C@H]1O)c1ccccc1	−1

-- ask # get_value(readout='Log2 differential normalized TPM ratio compared to glucose', item= "OC[C@H]1O[C@@H](O[C@H]2[C@H](O)[C@@H](O)[C@@H](O)O[C@@H]2CO)[C@H](O)[C@@H](O)[C@H]1O" )
-- reply 0.2
